# assay_system: T1, human GLP-1 receptor (human, UniProt P43220 24-463)
# T1 construct: whole, on cells; also called hGLP-1R; human glucagon-like peptide-1 receptor
# method_summary: SPA competition vs [125I]-GLP-1, hGLP-1R membranes
experimental_endpoint: pKi
Quick note: pKi means taking -log10 of the concentration in moles per liter.

| binder | experimental_endpoint | numeric_value |
| --- | --- | --- |
| YXEGTXTSDXXIXLDXIAQXEFIKXLIKGGPSSGAPPPS (Aib2, αMeF(2F)6, 4Pal10, αMeS11, αMeL13, Orn16, Aib20, K24(Z1), αMeY25, K28(Z1), C-term NH2; Z1=AEEA2-(γ-Glu)-CO-(CH2)12-CO2H) | pKi | 9.06 |

Q: Give its pKi value. Item: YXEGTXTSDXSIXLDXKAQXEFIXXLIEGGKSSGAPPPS (Aib2, αMeF(2F)6, Ac5c10, αMeL13, Orn16, K17(Z1), Aib20, D-Glu24, αMeY25, K31(Z1), C-term NH2; Z1=AEEA2-(γ-Glu)-CO-(CH2)12-CO2H)
A: 8.84

Q: Give its pKi value. Item: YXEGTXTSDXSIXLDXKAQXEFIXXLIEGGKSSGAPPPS (Aib2, αMeF(2F)6, 4Pal10, αMeL13, Orn16, K17(Z1), Aib20, D-Glu24, αMeY25, K31(Z1), C-term NH2; Z1=(εK)-(γ-Glu)-(γ-Glu)-CO-(CH2)12-CO2H)
A: 8.77

Q: Give its pKi value. Item: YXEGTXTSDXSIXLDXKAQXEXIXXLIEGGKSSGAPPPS (Aib2, αMeF(2F)6, 4Pal10, αMeL13, Orn16, K17(Z1), Aib20, 3ClPhe22, D-Glu24, αMeY25, K31(Z1), C-term NH2; Z1=AEEA2-(γ-Glu)-CO-(CH2)12-CO2H)
A: 8.80

These entries and their values trace back to patent US20230265151A1.
